assay_target: T1, Tau peptide Start 3 Stop 22 (Synthetic linear peptide immobilised on a Pepscan array; the attachment to the array cannot be carried by the letters.)
T1 peptide: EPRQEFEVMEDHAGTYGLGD
run_description: Pepscan ELISA on an array of linear 20-mer Tau 441 peptides
Parameters: unit not given here
Please provide measured peptide ELISA signal (no name or unit printed) for the entries that follow.
# output: bare number, no unit

Consider the binder hTau60 monoclonal antibody (recombinant, mouse IgG2a/kappa) (antibody, V domains shown, also called hTau60 (PT1B469)) VH: EVQLQQSGPELVKPGTSVKISCKVFGYTFTDYYMNWVKQSHGKSLEWIGDINPDNGETTYNQKFKGKATLTVDKSSSTAYMELRSLTSEDSAVYYCAKGATFVYWGQGTLVTVSA VL: DVVMTQTPLSLPVSLGDQASISCISSQSLVHSTGTTFLHWFLQKPGQSPKLLIYKVSNRFSGVPDRFSGSGSGTDFTLKISRVEAEDLGFYFCSQSTYFPLTFGSGTKLEIKR and give its measured peptide ELISA signal (no name or unit printed).
44

Consider the binder PT69 monoclonal antibody (recombinant, mouse IgG2a/kappa) (antibody, V domains shown, also called PT69/PT87; PT69 (PT1B548)) VH: QVQLQQPGAELVKPGASVKMSCKASGYTFTNYWITWVKQRPGQGLEWIGDIYPGSGRTKSNEKFKNKATLTADTSSSTAYMQLSSLTSEDSAVYYCTRRWGLDYWGQGTTLTVSS VL: DIVITQDELSNPVTSGESVSISCRSNKSLLYKDGKTYLNWFLQRPGQSPQLLIYLMSTRASGVSDRFSGSGSGTDFTLEISRVKAEDVGVYYCQQLVDYPLTFGAGTKLELKR and give its measured peptide ELISA signal (no name or unit printed).
38

Consider the binder PT81 monoclonal antibody (recombinant, mouse IgG2a/kappa) (antibody, V domains shown) VH: QVQLQQPGAELVRPGASVILSCKASGYTFTNSWIHWVKQRPGRVLEWIGRIDPNSGGTRYNENFKSKATLTVDKPSSTAYMQLSSLTSEDSAVYFCSRGVLHDYWGQGTTLTVSS VL: DIVITQDELSNPVTSGESVSISCRSSKSLLYKDGKTYLNWFLQRPGQSPQLLIYLMSTRASGVSDRFSVSGSGTDFTLEISRVQAEDVGVYYCQQLVEYPYTFGGGTKLEIKR and give its measured peptide ELISA signal (no name or unit printed).
45

Consider the binder PT66 monoclonal antibody (recombinant, mouse IgG2a/kappa) (antibody, V domains shown, also called PT66 (PT1B545)) VH: QVQLQQPGAELVKPGASVKMSCKASGYTFTSYWITWVKQRPGQGLEWIGDIHPGRGSTKSNEKFKSKATLTVDTSSSTAYMQFSSLTSEDSAVYYCARRWGFDYWGQGTTLTVSS VL: DIVITQDELSNPVTSGESVSISCRSSKSLLYKDGKTYLNWFLQRPGQSPQLLIYLMSTRASGVSDRFSGSGSGTDFTLEISRVKAEDVGVYYCQQLVDYPLTFGAGTKLELKR and give its measured peptide ELISA signal (no name or unit printed).
45
